Each recorded value in this set is attributed to the supplement of paper PMC10065799.

target_system: MERTK (UniProt Q12866)
Sequence (Q12866 whole entry, looked up): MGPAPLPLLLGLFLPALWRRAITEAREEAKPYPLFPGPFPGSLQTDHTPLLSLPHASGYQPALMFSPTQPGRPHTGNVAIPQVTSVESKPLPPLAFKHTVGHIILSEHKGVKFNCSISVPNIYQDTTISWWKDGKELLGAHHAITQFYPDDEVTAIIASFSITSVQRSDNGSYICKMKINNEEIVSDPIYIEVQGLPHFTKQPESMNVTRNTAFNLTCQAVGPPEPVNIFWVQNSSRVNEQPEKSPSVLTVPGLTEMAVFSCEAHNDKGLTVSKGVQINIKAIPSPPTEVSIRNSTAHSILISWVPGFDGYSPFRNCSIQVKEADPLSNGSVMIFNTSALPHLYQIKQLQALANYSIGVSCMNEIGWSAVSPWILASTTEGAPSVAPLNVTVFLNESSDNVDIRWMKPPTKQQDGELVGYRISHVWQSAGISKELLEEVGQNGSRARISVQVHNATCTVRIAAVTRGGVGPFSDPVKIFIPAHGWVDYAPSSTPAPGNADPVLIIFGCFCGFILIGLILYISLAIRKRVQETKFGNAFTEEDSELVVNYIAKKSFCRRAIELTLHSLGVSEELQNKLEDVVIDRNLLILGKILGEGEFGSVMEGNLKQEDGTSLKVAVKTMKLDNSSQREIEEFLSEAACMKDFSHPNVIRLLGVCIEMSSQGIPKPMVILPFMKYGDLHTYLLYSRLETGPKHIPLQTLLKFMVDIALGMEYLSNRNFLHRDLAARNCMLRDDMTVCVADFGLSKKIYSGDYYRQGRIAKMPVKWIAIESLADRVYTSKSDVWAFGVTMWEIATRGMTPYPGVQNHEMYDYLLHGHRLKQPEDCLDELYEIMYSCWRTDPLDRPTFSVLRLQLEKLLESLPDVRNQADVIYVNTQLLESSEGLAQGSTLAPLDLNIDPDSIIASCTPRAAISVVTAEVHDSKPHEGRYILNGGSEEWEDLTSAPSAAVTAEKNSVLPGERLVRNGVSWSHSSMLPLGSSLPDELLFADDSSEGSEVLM
procedure_text: phosphorylation enrichment, bacterial display (enrichment ratio); higher = better substrate or ligand; peptides without Tyr show the background;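 also: 11-residue human phosphosite peptides and single-mutation variants displayed on the E. coli surface, counted by deep sequencing, each peptide's frequency after selection divided by its frequency in the unselected input library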;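 also: frequency after pTyr selection over input frequency; kinase dosed for 20-30% of maximal phosphorylation in three min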
Use true when the recorded phosphorylation enrichment is no lower than 0.5; use false when it is lower.

>  <sequence_text>
TSYSGYRYHRH [NKAPL_Y94]

>  <answer_label>
false

$$$$
>  <sequence_text>
SRVNKYSTAFG [GJB3_Y16_G12R]

>  <answer_label>
false

$$$$
>  <sequence_text>
MNLLGYRHVRS [CHST4_Y359]

>  <answer_label>
false

$$$$
>  <sequence_text>
RPASQYPHQVP [ADAM12_Y895_P893S]

>  <answer_label>
false

$$$$
>  <sequence_text>
DKMEAYNIDET [TEKT4_Y210]

>  <answer_label>
false

$$$$
>  <sequence_text>
IRCQGYSHRIL [MYO3B_Y993_R990C]

>  <answer_label>
false

$$$$
>  <sequence_text>
QMVGKYASSYM [AVPR2_Y124_M123K]

>  <answer_label>
false

$$$$
>  <sequence_text>
HLTNQFMQRVA [PABPC4_Y382_Y382F]

>  <answer_label>
true

$$$$
>  <sequence_text>
FEEDSYVERSQ [RET_Y905_K907E_YF]

>  <answer_label>
false

$$$$
>  <sequence_text>
SQQTYCRVSNM [ABCD1_Y181_Y181C]

>  <answer_label>
true

$$$$
>  <sequence_text>
KMKGDYYCYLA [YWHAG_Y130_R132C]

>  <answer_label>
true

$$$$
>  <sequence_text>
FGGTVYHSPVS [PRC1_Y511]

>  <answer_label>
false

$$$$
>  <sequence_text>
NKYTTYLPWLP [C9orf24_Y126_R129W]

>  <answer_label>
true

$$$$

* * *

target_system: EPHB2 (UniProt P29323)
Sequence (P29323 whole entry, looked up): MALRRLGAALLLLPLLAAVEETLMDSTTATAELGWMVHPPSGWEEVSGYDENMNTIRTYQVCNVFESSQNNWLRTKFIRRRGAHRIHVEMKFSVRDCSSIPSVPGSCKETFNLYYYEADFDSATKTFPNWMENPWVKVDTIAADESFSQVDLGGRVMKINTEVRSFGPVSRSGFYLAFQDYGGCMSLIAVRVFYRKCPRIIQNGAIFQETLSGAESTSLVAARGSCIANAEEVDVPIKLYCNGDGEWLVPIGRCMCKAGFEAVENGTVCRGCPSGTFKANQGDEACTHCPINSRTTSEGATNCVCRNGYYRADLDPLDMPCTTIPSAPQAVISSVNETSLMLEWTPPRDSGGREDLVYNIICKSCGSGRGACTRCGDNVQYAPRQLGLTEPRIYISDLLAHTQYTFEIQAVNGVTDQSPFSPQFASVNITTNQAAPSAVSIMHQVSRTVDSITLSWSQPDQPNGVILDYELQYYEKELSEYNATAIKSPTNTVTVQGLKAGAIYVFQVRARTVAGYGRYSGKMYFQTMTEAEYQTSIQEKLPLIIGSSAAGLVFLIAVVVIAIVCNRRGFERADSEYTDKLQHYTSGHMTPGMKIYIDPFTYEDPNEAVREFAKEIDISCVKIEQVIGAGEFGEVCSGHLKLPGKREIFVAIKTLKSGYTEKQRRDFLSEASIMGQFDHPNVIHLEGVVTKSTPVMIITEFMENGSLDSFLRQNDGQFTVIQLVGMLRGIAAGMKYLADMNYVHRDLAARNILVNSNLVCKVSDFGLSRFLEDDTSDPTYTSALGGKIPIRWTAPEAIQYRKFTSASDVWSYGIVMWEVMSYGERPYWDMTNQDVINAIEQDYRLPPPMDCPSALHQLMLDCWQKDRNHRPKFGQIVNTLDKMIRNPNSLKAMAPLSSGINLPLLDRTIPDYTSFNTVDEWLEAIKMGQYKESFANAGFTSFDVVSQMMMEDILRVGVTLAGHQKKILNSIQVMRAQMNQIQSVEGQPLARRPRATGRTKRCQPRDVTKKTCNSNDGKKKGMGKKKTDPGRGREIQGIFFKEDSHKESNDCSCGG
procedure_text: phosphorylation enrichment, bacterial display (enrichment ratio); higher = better substrate or ligand; peptides without Tyr show the background
Use yes when the recorded phosphorylation enrichment is no lower than 0.5; use no when it is lower.

>  <sequence_text>
TGSFTCEAVEL [MTMR14_Y462_Y462C]

>  <answer_label>
yes

$$$$
>  <sequence_text>
PSSRDYKHNIK [PIGN_Y227]

>  <answer_label>
no

$$$$
>  <sequence_text>
TFGQVYKGRHV [TNIK_Y40_YF]

>  <answer_label>
no

$$$$
>  <sequence_text>
DKMEAYNIDET [TEKT4_Y210]

>  <answer_label>
yes

$$$$
>  <sequence_text>
FFRDGYMPRQF [GSS_Y270_YF]

>  <answer_label>
no

$$$$

* * *

target_system: MERTK (UniProt Q12866)
procedure_text: phosphorylation enrichment, bacterial display (enrichment ratio); higher = better substrate or ligand; peptides without Tyr show the background
This section presents sequences with their documented phosphorylation enrichment values.
measurement_kind: phosphorylation enrichment

>  <sequence_text>
GIVEDYRPPFF [ACVRL1_Y421_YF]

>  <target_system>
MERTK (UniProt Q12866)

>  <value_measured>
0.417

$$$$
>  <sequence_text>
HFVFFYSFLLK [PTEN_Y178_R173H_YF]

>  <target_system>
MERTK (UniProt Q12866)

>  <value_measured>
1.44

$$$$
>  <sequence_text>
INPIIYAFVGG [CCR5_Y297_E302G]

>  <target_system>
MERTK (UniProt Q12866)

>  <value_measured>
8.42

$$$$
>  <sequence_text>
IGEGTYGVVFK [CDK2_Y15_YF]

>  <target_system>
MERTK (UniProt Q12866)

>  <value_measured>
0.905

$$$$
>  <sequence_text>
KKHFSYAWPFF [BRDT_Y291_YF]

>  <target_system>
MERTK (UniProt Q12866)

>  <value_measured>
1.64

$$$$
>  <sequence_text>
AEQDCYHGAIP [FER_Y461_W460C]

>  <target_system>
MERTK (UniProt Q12866)

>  <value_measured>
0.453

$$$$
>  <sequence_text>
EQKKYYNAMKN [SCN5A_Y1495_K1500N]

>  <target_system>
MERTK (UniProt Q12866)

>  <value_measured>
0.356

$$$$
>  <sequence_text>
FTAVGYHKHIT [NOMO1_Y1137]

>  <target_system>
MERTK (UniProt Q12866)

>  <value_measured>
0.33

$$$$
>  <sequence_text>
SSNLYYRWLTA [CNGA3_Y169]

>  <target_system>
MERTK (UniProt Q12866)

>  <value_measured>
8.61

$$$$
>  <sequence_text>
CTTIHYNYMCT [TP53_Y234_N239T]

>  <target_system>
MERTK (UniProt Q12866)

>  <value_measured>
0.784

$$$$
>  <sequence_text>
SLDLSYFHTSS [EMD_Y181_P183H_YF]

>  <target_system>
MERTK (UniProt Q12866)

>  <value_measured>
0.566

$$$$
>  <sequence_text>
HRGCLYLAIEY [TEK_Y899_Y897C]

>  <target_system>
MERTK (UniProt Q12866)

>  <value_measured>
0.691

$$$$
>  <sequence_text>
KPLMPYMRYSR [SMARCE1_Y73]

>  <target_system>
MERTK (UniProt Q12866)

>  <value_measured>
0.467

$$$$
>  <sequence_text>
FEELVYETVRV [FSHB_Y76_K72E]

>  <target_system>
MERTK (UniProt Q12866)

>  <value_measured>
4.67

$$$$
>  <sequence_text>
CEDMEYLESKQ [BTK_Y511_A508D]

>  <target_system>
MERTK (UniProt Q12866)

>  <value_measured>
0.497

$$$$
>  <sequence_text>
FSNVLYRPRGA [TMIGD2_Y197_YF]

>  <target_system>
MERTK (UniProt Q12866)

>  <value_measured>
0.418

$$$$
>  <sequence_text>
QRRFLYFFSFL [PTEN_Y176_V175L_YF]

>  <target_system>
MERTK (UniProt Q12866)

>  <value_measured>
0.886

$$$$
>  <sequence_text>
QGIFGYHHHMQ [UFSP2_Y287_Y290H_YF]

>  <target_system>
MERTK (UniProt Q12866)

>  <value_measured>
0.521

$$$$
>  <sequence_text>
YMRGMYFRMKD [PLA2G6_Y541]

>  <target_system>
MERTK (UniProt Q12866)

>  <value_measured>
0.439

$$$$
>  <sequence_text>
QRTMKYTTATE [MCCC1_Y41_G46E]

>  <target_system>
MERTK (UniProt Q12866)

>  <value_measured>
0.862

$$$$
>  <sequence_text>
LLKKMYLMLDN [STAT1_Y203]

>  <target_system>
MERTK (UniProt Q12866)

>  <value_measured>
0.401

$$$$
>  <sequence_text>
WCKPLYFSCAV [MMS22L_Y28_P27L]

>  <target_system>
MERTK (UniProt Q12866)

>  <value_measured>
0.907

$$$$
>  <sequence_text>
PTTKTYFPHFY [HBA1_Y43_D48Y]

>  <target_system>
MERTK (UniProt Q12866)

>  <value_measured>
0.508

$$$$
>  <sequence_text>
IETGRYEILTE

>  <target_system>
MERTK (UniProt Q12866)

>  <value_measured>
0.533

$$$$
>  <sequence_text>
RFLRGYEQDAY [HLA-A_Y137_R138E]

>  <target_system>
MERTK (UniProt Q12866)

>  <value_measured>
0.304

$$$$
>  <sequence_text>
SLKAFYGEDAK [ALDH3A1_Y272_E270A]

>  <target_system>
MERTK (UniProt Q12866)

>  <value_measured>
0.332

$$$$
>  <sequence_text>
VCRHNYGVVES [HLA-DRB1_Y112_Y107V]

>  <target_system>
MERTK (UniProt Q12866)

>  <value_measured>
0.484

$$$$
>  <sequence_text>
LAARYYNWVCF [FLT4_Y1231_S1235C]

>  <target_system>
MERTK (UniProt Q12866)

>  <value_measured>
1.04

$$$$
>  <sequence_text>
LDYNEYFRYLN [HPRT1_Y198_D201Y]

>  <target_system>
MERTK (UniProt Q12866)

>  <value_measured>
0.573

$$$$
